target: T1, human programmed cell death protein 1 (hPD-1) C93S (aa 24-167) (Homo sapiens, UniProt Q15116, C93S); assay: SPR; Carterra LSA; Fab from the ammonium sulfate precipitate of the culture supernatant immobilised on a NiHC200M chip; hPD-1 (1-1024 nM) or mPD-1-Fc (4-1024 nM) as analyte, fourfold dilution series, no regeneration; HBS-EP pH 7.4, 25 °C; medians over the spots of a construct, KD = koff/kon; conditions: one partner purified
T1 construct: made as a fusion with a TEV site and human Fc; the Fc was cut off with TEV protease; source: Expi293F, purified (Protein A, TEV cleavage of Fc, SEC; monomer fractions); not shown: Fc (human), C-terminal, cleaved
T1 sequence (Q15116 24-167 C93S): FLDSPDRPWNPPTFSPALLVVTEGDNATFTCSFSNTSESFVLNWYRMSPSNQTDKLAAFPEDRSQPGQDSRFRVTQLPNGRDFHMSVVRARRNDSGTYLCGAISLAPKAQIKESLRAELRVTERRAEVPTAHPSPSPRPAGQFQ
Reported koff values are given for each entry in this list.
Dear colleague, please return just the value in s⁻¹, with no unit written.

Past entries and their recorded results:
[
  {
    "BINDER": "toripalimab Fab L.V99D (Fab, V domains shown, as the heavy chain of Sm3; light chain of Sm3 with this change; numbers count from the chain's first residue; source: Brevibacillus, culture supernatant (ammonium sulfate precipitate); not shown: 6xHis, C-terminal, kept; 6xHN, C-terminal, kept) VH: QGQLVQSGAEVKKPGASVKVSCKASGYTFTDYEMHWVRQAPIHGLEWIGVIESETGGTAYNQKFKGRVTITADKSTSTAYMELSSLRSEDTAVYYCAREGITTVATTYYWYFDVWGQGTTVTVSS VL: DVVMTQSPLSLPVTLGQPASISCRSSQSIVHSNGNTYLEWYLQKPGQSPQLLIYKVSNRFSGVPDRFSGSGSGTDFTLKISRVEAEDVGVYYCFQGSHDPLTFGQGTKLEIK",
    "koff, s⁻¹": "1.8e-05"
  },
  {
    "BINDER": "toripalimab Fab L.P100G (Fab, V domains shown, as the heavy chain of Sm3; light chain of Sm3 with this change; numbers count from the chain's first residue; source: Brevibacillus, culture supernatant (ammonium sulfate precipitate); not shown: 6xHis, C-terminal, kept; 6xHN, C-terminal, kept) VH: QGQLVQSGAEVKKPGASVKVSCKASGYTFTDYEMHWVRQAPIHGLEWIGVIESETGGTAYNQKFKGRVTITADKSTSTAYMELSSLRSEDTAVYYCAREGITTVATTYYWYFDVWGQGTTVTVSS VL: DVVMTQSPLSLPVTLGQPASISCRSSQSIVHSNGNTYLEWYLQKPGQSPQLLIYKVSNRFSGVPDRFSGSGSGTDFTLKISRVEAEDVGVYYCFQGSHVGLTFGQGTKLEIK",
    "koff, s⁻¹": "3.76e-05"
  },
  {
    "BINDER": "toripalimab Fab L.G96A (Fab, V domains shown, as the heavy chain of Sm3; light chain of Sm3 with this change; numbers count from the chain's first residue; source: Brevibacillus, culture supernatant (ammonium sulfate precipitate); not shown: 6xHis, C-terminal, kept; 6xHN, C-terminal, kept) VH: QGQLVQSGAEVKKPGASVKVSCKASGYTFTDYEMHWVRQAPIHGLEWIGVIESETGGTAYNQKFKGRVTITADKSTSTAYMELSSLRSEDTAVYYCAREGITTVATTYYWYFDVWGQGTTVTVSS VL: DVVMTQSPLSLPVTLGQPASISCRSSQSIVHSNGNTYLEWYLQKPGQSPQLLIYKVSNRFSGVPDRFSGSGSGTDFTLKISRVEAEDVGVYYCFQASHVPLTFGQGTKLEIK",
    "koff, s⁻¹": 0.00516
  },
  {
    "BINDER": "toripalimab Fab H.A59Y (Fab, V domains shown, heavy chain of Sm3 with this change; numbers count from the chain's first residue; as the light chain of Sm3; source: Brevibacillus, culture supernatant (ammonium sulfate precipitate); not shown: 6xHis, C-terminal, kept; 6xHN, C-terminal, kept) VH: QGQLVQSGAEVKKPGASVKVSCKASGYTFTDYEMHWVRQAPIHGLEWIGVIESETGGTYYNQKFKGRVTITADKSTSTAYMELSSLRSEDTAVYYCAREGITTVATTYYWYFDVWGQGTTVTVSS VL: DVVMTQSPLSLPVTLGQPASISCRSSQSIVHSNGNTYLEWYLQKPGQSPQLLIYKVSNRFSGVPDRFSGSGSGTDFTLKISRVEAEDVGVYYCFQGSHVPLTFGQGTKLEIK",
    "koff, s⁻¹": "4.81e-05"
  }
]

Please examine the following record next.
*Q* What value of koff has been recorded for this entry: toripalimab Fab L.V30A (Fab, V domains shown, as the heavy chain of Sm3; light chain of Sm3 with this change; numbers count from the chain's first residue; source: Brevibacillus, culture supernatant (ammonium sulfate precipitate); not shown: 6xHis, C-terminal, kept; 6xHN, C-terminal, kept) VH: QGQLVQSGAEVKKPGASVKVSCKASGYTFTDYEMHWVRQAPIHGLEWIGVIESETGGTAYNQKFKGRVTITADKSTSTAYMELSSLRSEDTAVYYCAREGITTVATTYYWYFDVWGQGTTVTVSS VL: DVVMTQSPLSLPVTLGQPASISCRSSQSIAHSNGNTYLEWYLQKPGQSPQLLIYKVSNRFSGVPDRFSGSGSGTDFTLKISRVEAEDVGVYYCFQGSHVPLTFGQGTKLEIK
*A* 6.23e-05

Values from paper PMC10663500
